Biological target: T1, human PRLR on HEK293/hPRLR cells (Homo sapiens, UniProt P16471)
T1 construct: HA; expressed in transfected cells; host or cells: HEK293
T1 sequence (P16471 25-622): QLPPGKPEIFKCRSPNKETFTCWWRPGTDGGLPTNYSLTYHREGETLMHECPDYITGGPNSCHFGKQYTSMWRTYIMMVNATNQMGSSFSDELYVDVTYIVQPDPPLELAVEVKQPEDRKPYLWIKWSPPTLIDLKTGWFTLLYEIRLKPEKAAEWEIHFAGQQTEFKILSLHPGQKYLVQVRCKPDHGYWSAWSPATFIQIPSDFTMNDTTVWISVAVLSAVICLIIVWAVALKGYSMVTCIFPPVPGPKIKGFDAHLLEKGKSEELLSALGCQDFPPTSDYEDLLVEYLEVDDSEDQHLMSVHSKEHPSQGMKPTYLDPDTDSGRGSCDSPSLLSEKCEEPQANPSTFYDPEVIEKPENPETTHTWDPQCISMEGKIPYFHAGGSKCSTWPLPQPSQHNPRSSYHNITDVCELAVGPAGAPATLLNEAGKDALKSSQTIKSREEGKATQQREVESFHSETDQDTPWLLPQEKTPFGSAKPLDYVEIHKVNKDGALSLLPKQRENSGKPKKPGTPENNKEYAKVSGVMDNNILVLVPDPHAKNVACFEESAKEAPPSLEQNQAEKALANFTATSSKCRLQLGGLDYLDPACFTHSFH
Experiment: FACS cell surface binding
Would you kindly list FACS Cell Binding for each of these molecules?
Please format your answer as a value with the unit trailing.

Given H1H6790P: fully human anti-PRLR antibody, human IgG1 Fc; HCVR/LCVR SEQ ID NOs 114/122 (antibody, V domains shown) VH: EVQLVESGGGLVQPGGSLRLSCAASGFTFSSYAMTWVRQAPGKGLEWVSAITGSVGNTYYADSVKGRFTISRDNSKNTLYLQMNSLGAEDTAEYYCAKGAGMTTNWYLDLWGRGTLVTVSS VL: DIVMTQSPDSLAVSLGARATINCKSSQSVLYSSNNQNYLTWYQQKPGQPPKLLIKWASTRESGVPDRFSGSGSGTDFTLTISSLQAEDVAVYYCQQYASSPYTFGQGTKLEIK , state its recorded FACS Cell Binding.
37 Fold Above Background

Given H1H6774P: fully human anti-PRLR antibody, human IgG1 Fc; HCVR/LCVR SEQ ID NOs 34/42 (antibody, V domains shown) VH: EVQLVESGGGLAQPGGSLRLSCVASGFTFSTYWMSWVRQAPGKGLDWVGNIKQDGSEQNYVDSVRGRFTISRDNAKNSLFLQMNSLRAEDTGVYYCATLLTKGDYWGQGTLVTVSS VL: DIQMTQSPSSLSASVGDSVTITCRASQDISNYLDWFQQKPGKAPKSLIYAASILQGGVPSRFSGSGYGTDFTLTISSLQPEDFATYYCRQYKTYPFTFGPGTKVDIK , state its recorded FACS Cell Binding.
1 Fold Above Background

Given H1H6976N: anti-PRLR antibody, human IgG1 Fc form of H2M6976N of Table 1; HCVR/LCVR SEQ ID NOs 386/394 (antibody, V domains shown, human IgG1 Fc) VH: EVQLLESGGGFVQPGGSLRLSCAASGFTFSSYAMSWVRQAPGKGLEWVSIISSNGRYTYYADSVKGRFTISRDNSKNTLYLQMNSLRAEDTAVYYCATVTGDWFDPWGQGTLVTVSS VL: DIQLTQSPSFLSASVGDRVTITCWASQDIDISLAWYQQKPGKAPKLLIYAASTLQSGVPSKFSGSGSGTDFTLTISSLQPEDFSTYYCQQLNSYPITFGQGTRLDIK , state its recorded FACS Cell Binding.
8 Fold Above Background
